assay: Solubility; type: physicochemical; conditions: water; read-out: Solubility water
Recorded solubility, one value per entry.
The figure you give is taken to be in µg/mL; do not add the unit.

*Q* // returns reported solubility for input OCC1O[C@@H](SC2O[C@H](CO)C(O)C(n3cc(-c4ccc(F)cn4)nn3)[C@H]2O)C(O)C(n2cc(-c3ccc(F)cn3)nn2)[C@H]1O (stereo in doubt)
*A* 4300

Now, please, on to the next compound.
*Q* I would be grateful if you could share the reported solubility for OCC1O[C@@H](SC2O[C@H](CO)C(O)C(n3cc(-c4cccc(F)c4)nn3)[C@H]2O)C(O)[C@@H](n2cc(-c3cccc(F)c3)nn2)[C@H]1O (some centres unmarked) [Ref 1, reference compound] .
*A* 400

Where do the numbers come from? From patent US10464964B2.
